These measurements were taken from ChEMBL document CHEMBL3526066.

Below, each entry is listed alongside its reported half-life.
Test: Terminal half life in human
Format: ADME, organism-based
Conditions: in vivo, read-out: beta t1/2 (converted)
Please state the figure in h; there is no need to write the unit.

# input Quick check: half-life of CO[C@H]1/C=C\C=C(/C)C(=O)NC2=CC(=O)C(NCCN(C)C)=C(C[C@@H](C)C[C@H](OC)[C@H](O)[C@@H](C)/C=C(\C)[C@@H]1OC(N)=O)C2=O (stereo in doubt) ?
# output 16

# input Quick check: half-life of C=CCNC1=C2C[C@@H](C)C[C@H](OC)[C@H](O)[C@@H](C)/C=C(\C)[C@H](OC(N)=O)[C@@H](OC)/C=C\C=C(/C)C(=O)NC(=CC1=O)C2=O ?
# output 4

----------
System: Liver microsome
Assay: Drug metabolism in human liver microsomes assessed as (4E,6Z,8S,9S,10E,12S,13R,14S,16R)-19-(2-(dimethylamino)ethylamino)-13-hydroxy-10-(hydroxymethyl)-8,14-dimethoxy-4,12,16-trimethyl-3,20,22-trioxo-2-azabicyclo[16.3.1]docosa-1(21),4,6,10,18-pentaen-9-yl carbamate formation at 37 degC in presence of reduced GSH by liquid chromatography-tandem mass spectrometry
Assay type: ADME
Details: read-out: Km(app)
MEASURED PROPERTY: Km (µM)
Please state the figure in µM; there is no need to write the unit.

# input Quick check: Km of CO[C@H]1/C=C\C=C(/C)C(=O)NC2=CC(=O)C(NCCN(C)C)=C(C[C@@H](C)C[C@H](OC)[C@H](O)[C@@H](C)/C=C(\C)[C@@H]1OC(N)=O)C2=O (stereo in doubt) [ALVESPIMYCIN] ?
# output 6.61

----------
Tested on: Liver microsome
Assay: Drug metabolism in human liver microsomes assessed as (4E,6Z,8S,9S,10E,12S,13R,14S,16R)-19-(2-(dimethylamino)ethylamino)-13,14-dihydroxy-8-methoxy-4,10,12,16-tetramethyl-3,20,22-trioxo-2-azabicyclo[16.3.1]docosa-1(21),4,6,10,18-pentaen-9-yl carbamate formation at 37 degC in presence of reduced GSH by liquid chromatography-tandem mass spectrometry
Format: ADME
Conditions: read-out: Km(app)
MEASURED PROPERTY: Km (µM)
Please state the figure in µM; there is no need to write the unit.

# input Lab note: need Km for CO[C@H]1/C=C\C=C(/C)C(=O)NC2=CC(=O)C(NCCN(C)C)=C(C[C@@H](C)C[C@H](OC)[C@H](O)[C@@H](C)/C=C(\C)[C@@H]1OC(N)=O)C2=O (stereo in doubt) [ALVESPIMYCIN] on Liver microsome, anyone have it?
# output 7.83

----------
Tested on: Liver microsome
Test: Retention time in human liver microsomes treated with 10 uM […] after 2 hrs by liquid chromatography-tandem mass spectrometry
Format: ADME
Below, each entry is listed alongside its reported Retention_time.
Please state the figure in min; there is no need to write the unit.

Reference set (3 entries):
{"COMPOUND": "CO[C@H]1/C=C\\C=C(/C)C(=O)NC2=CC(=O)C(/N=C/CN(C)C)=C(C[C@@H](C)C[C@H](OC)[C@H](O)[C@@H](C)/C=C(\\C)[C@@H]1OC(N)=O)C2=O", "TESTED SYSTEM": "Liver microsome", "MEASURED PROPERTY": "Retention_time", "VAL": 8.4}
{"COMPOUND": "CO[C@H]1/C=C\\C=C(/C)C(=O)NC2=CC(=O)C(NCCN(C)C)=C(C[C@@H](C)C[C@H](O)[C@H](O)[C@@H](C)/C=C(\\C)[C@@H]1OC(N)=O)C2=O", "TESTED SYSTEM": "Liver microsome", "MEASURED PROPERTY": "Retention_time", "VAL": 7.57}
{"COMPOUND": "CO[C@H]1/C=C\\C=C(/C)C(=O)NC2=CC(=O)C(NCCN(C)C)=C(C[C@@H](C)C[C@H](OC)[C@H](O)[C@@H](C)/C=C(\\CO)[C@@H]1OC(N)=O)C2=O", "TESTED SYSTEM": "Liver microsome", "MEASURED PROPERTY": "Retention_time", "VAL": 8.21}

# input Quick check: Retention_time of CO[C@H]1C[C@H](C)CC2=C(NCCN(C)C)C(=O)C=C(NC(=O)/C(C)=C/C=C\[C@H](O)[C@@H](OC(N)=O)/C(C)=C/[C@H](C)[C@H]1O)C2=O ?
# output 7.13

# input Quick check: Retention_time of CO[C@H]1/C=C\C=C(/C)C(=O)NC2=CC(=O)C(NC(O)CN(C)C)=C(C[C@@H](C)C[C@H](OC)[C@H](O)[C@@H](C)/C=C(\C)[C@@H]1OC(N)=O)C2=O (stereo partly specified) ?
# output 9.04

# input Quick check: Retention_time of CO[C@H]1/C=C\C=C(/C)C(=O)NC2=CC(=O)C(NC(O)CN(C)C)=C(C[C@@H](CO)C[C@H](OC)[C@H](O)[C@@H](CO)/C=C(\C)[C@@H]1OC(N)=O)C2=O (stereo partly specified) ?
# output 6.8
